Overview of reported pIC50 across a group of molecules:
study.system: Plasma Kallikrein (Homo sapiens, UniProt P03952)
Construct: FXIIa converts plasma prekallikrein (PK) to plasma kallikrein (PKa)
Sequence (P03952 391-638 limits assumed): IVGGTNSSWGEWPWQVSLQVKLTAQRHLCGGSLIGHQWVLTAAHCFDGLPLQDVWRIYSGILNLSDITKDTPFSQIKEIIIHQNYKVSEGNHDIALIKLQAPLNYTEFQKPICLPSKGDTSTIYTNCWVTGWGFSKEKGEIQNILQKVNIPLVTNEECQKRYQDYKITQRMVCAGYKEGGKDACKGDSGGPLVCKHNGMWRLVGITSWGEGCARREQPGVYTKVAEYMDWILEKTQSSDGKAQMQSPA
Sequence (P03952 20-390 partner limits assumed): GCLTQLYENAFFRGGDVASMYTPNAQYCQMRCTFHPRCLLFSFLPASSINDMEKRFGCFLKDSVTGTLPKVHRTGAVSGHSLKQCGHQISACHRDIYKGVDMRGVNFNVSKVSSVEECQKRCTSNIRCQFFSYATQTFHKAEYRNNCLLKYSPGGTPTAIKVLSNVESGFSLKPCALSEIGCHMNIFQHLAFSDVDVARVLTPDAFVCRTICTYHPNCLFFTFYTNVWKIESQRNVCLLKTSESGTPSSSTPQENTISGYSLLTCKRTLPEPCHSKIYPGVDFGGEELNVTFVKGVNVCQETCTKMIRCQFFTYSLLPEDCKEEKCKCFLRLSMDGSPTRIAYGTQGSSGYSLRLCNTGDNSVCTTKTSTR
protocol.description: Related protease inhibition: Plasma Kallikrein (fluorogenic substrate at Km)
setup.conditions: class symbols per Table 18, read-out: IC50 (human PKal)
Protocol: In vitro inhibition of related proteases was determined using an IC50 assay based on standard literature methods (see e.g. Shori et al., Biochem. Pharmacol., 1992, 43, 1209; Bouckaert et al., European Journal of Medicinal Chemistry 110 (2016) 181). […] Protease activity was measured by monitoring the accumulation of liberated fluorescence from the substrate over 5 min at 25° C. The linear rate of fluorescence increase per minute was expressed as percentage (%) activity. […]
pIC50: −log10 of the molar value.

# molecule, pIC50
data = [
    ("Cn1ccc(OCC23CC(CNc4cccc5c(N)nccc45)(C2)C3)cc1=O", "< 4.40"),
    ("Nc1nccc2c(NCC34CC(COc5cccn6ccnc56)(C3)C4)cccc12", "< 4.40"),
    ("Cc1cnc2ccc(OCC34CC(CNc5cccc6c(N)nccc56)(CO3)C4)cn12", "4.40 to 5.00"),
    ("Nc1nccc2c(NCC34CC(COC5CCn6ccnc6C5)(C3)C4)cccc12 (racemic) [Example 1002]", "< 4.40"),
]
